- method-description: Ratio of drug level in brain to blood in ICR mouse after 2 mins
- Format: ADME, tissue-based
- experimental-parameters: brain and blood, read-out: BBR
assay-metric: Kp at 2 min

1. COc1ccc(-c2cc3cc([125I])ccc3[nH]2)cc1 ... 0.59

A. OCCOc1ccc(-c2cc3cc([125I])ccc3[nH]2)cc1
B. CN(C)c1ccc(-c2cc3cc([125I])ccc3[nH]2)cc1
-- ask Kindly identify the item with the lower Kp at 2 min figure among these two: A and B # reply format: chosen label
-- reply B

I. CNc1ccc(-c2cc3cc([125I])ccc3[nH]2)cc1
II. CN(CC[18F])c1ccc(-c2cc3ccccc3[nH]2)cc1
-- ask Lower Kp at 2 min: I or II ? Give the chosen item's label as your response.
-- reply I
(I: 0.29, II: 1.72)

Hey, just so you know, these numbers are from ChEMBL document CHEMBL2396535.
